- Study system: T1, murine BACE1 ECD
- T1 construct: analyte of the Octet assay (200 nM) and enzyme of the first short substrate assay
- T1 sequence (single chain, as listed by the source limits assumed): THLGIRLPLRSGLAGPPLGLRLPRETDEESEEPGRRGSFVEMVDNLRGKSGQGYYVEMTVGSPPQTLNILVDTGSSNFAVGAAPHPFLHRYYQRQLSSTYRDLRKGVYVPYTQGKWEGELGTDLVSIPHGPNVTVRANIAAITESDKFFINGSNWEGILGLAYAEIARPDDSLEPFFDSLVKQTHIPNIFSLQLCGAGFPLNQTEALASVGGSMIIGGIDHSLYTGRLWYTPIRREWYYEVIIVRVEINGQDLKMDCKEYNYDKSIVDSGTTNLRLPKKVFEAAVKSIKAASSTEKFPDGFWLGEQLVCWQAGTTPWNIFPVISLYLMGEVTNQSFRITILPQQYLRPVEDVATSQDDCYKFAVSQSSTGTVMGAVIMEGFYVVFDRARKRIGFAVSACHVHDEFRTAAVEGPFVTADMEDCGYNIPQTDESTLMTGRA
- Experiment: Octet, pH 7.5;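 note: antibodies captured on anti-human capture sensor tips, dissociation monitored in PBS with BSA, Kd obtained from kinetic fit to a one-to-one binding model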
Kindly state Kd for each of the entries shown.

Reference set (3 entries):
>>> measured_result("6272 (antibody, V domains shown, anti-BACE1 IgG) VH: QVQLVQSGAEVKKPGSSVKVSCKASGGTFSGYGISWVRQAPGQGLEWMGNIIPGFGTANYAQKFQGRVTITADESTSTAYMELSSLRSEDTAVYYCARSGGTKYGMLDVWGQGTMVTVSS VL: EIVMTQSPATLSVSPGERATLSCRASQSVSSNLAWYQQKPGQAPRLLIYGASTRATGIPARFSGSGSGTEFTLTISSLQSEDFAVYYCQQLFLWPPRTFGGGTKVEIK")
"< 410 pM"
>>> measured_result("5990 (antibody, V domains shown, anti-BACE1 IgG) VH: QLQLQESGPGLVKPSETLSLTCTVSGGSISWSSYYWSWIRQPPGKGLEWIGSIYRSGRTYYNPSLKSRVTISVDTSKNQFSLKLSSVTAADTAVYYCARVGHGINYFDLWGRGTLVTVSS VL: EIVLTQSPATLSLSPGERATLSCRASRSVNSYLAWYQQKPGQAPRLLIYDASKRATGIPARFSGSGSGTDFTLTISSLEPEDFAVYYCQQVYTWPPRTFGGGTKVEIK")
"< 180 pM"
>>> measured_result("6294 (antibody, V domains shown, anti-BACE1 IgG) VH: QLQLQESGPGLVKPSETLSLTCTVSGGSISSSSHYWGWIRQPPGKGLEWIGMIYYSGSTWYNPSLKSRVTISVDTSKNQFSLKLSSVTAADTAVYYCARVGHGVSYFDLWGRGTLVTVSS VL: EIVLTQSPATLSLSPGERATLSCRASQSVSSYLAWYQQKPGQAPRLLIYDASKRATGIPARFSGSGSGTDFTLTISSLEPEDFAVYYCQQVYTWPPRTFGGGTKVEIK")
"< 300 pM"

Note down Kd recorded for 6297 (antibody, V domains shown, anti-BACE1 IgG) VH: QLQLQESGPGLVKPSETLSLTCTVSGGPISSSSYYWGWIRQPPGKGLEWIGNIYYSGSTYYNPSLRGRVTISVDTSKNQFSLKLSSVTAADTAVYYCARLGHGYNYFDLWGRGTLVTVSS VL: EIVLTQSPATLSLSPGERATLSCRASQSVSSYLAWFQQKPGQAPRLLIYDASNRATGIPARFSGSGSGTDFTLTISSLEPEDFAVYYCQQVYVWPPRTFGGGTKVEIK
< 260 pM
